# System: Vero cells
# setup-conditions: African green monkey
property-measured: CC50 (µM)

>>> print(df.to_string())
                               smiles_input  assayed_target  property_measured  sign_qualifier  experimental_result
0             CCCCSc1ccc(SCCCC)c(O)c(=O)c1O      Vero cells               CC50               =                 22.1
1     Cc1cc(O)c(=O)c(O)cc1S(=O)(=O)c1ccccc1      Vero cells               CC50               =                 65.8
2  Cc1cc(O)c(=O)c(O)c(O)c1C(=O)c1ccc(-c2ccccc2)cc1      Vero cells               CC50               =                 77.8
3  Cc1cc(O)c(=O)c(O)cc1C(=O)N1CCN(C(c2ccc(F)cc2)c2ccc(F)cc2)CC1      Vero cells               CC50               =                 54.7
4  C/C(=N\c1ccc(Cl)c(Cl)c1)c1c(C)cc(O)n(O)c1=O      Vero cells               CC50               >                  120
5          Cc1cc(O)c(=O)c(O)cc1C(=O)c1cccs1      Vero cells               CC50               =                  111
6            CCCCNC(=O)c1cc(O)c(=O)c(O)cc1C      Vero cells               CC50               >                  120
